Each entry below carries its recorded Kd.
# Measured On: human ATP Binding Cassette Subfamily C Member 1 (ABCC1) (UniProt P33527 1-1531)
# Test Protocol: FACS titration on H69AR cells

Some entries whose results are on file:
>  <Binder>
C1.773 (antibody, V domains shown) VH: EIQLAQSGPELVKPGASVKMSCKASGYSFIGYFMNWVKQSHGKSLEWIGRINPYNGDTFYNQKFKGKATLTVDKSSSTAHMELRSLTSEDSALYYCTRSGWGYDVYSFDYWGQGTLVTVSS VL: DIQMTQTPSSLSASLGDRVTISCRASQDISNYLNWYQQKPDGTVKLLIYYTSRLHSGVPSRFSGSGSGTDYSLTISNLEQEDIATYFCQQGNTLPWTFGGGTKLEIK

>  <Kd>
2.5 nM

$$$$
>  <Binder>
C1.787a (antibody, V domains shown) VH: EVQLTESGPGLVQPSQTLSLTCTVSGFSLTSNGVSWVRQPPGKGLEWIAAISSGGSTYYNSAFKSRLSISRHTSKSQVLLNMNSLQTEDTAMYFCARHRGYYWSNWGYFDYWGQGVMVTVSS VL: NIQLTQSPSLLSASVGDRVTLSCKGSQNINNYLAWYQQKLGEAPKLLIYKTNSLQTGIPSRFSGSGSGTDYTLTLSSLHSEDLATYYCCQYNDGYTFGAGTKLELK

>  <Kd>
4.3 nM

$$$$
>  <Binder>
C1.777a (antibody, V domains shown) VH: EVQLVESGPGLVQPSQTLSLTCTVSGFSLTNNGVSWVRQPPGKGLEWIAAISSGGSIYYNLAFKSRLSISRNTSKGHVLLKMNSLQTEDTAMYFCVRHRGYYGFNWGYFDYWGQGVMVTVSS VL: NIQLTQSPSLLSASVGDRVTLSCKGSQNINNYLAWYQQKLGEAPKLLIYKTNSLQTGIPSRFSGSGSGTDYTLTISSLHSEDLATYYCYQYNDGYTFGAGTKLELK

>  <Kd>
4.2 nM

$$$$
>  <Binder>
C1.778b (antibody, V domains shown) VH: EVQRKESGPGLVQPSQTLSLTCTVSGFSLTNNGVSWVRQPPGKGLEWIAAISSGGSIYYNSAFKSRLSISRITSKSQVLLKMNSLQTEDTAMYFCARHRGYYGYNWGYFDYWGQGVMVTVSS VL: NIQLTQSPSLLSASVGDRVTLSCKGSQNIDNYLAWYQQKLGEPPKLLIYKTNSLQTGIPSRFSGSGSGTDYTLTISSLHSEDLATYYCYQYNNGYTFGAGTKLELKR

>  <Kd>
8.7 nM

$$$$

Next item in the queue.
Value of Kd reported for the binder C1.784a (antibody, V domains shown) VH: EVKLEESGPGLVQPSQTLSLTCTVSGFSLTNNGVSWVRQPPGKGLEWIAAMSSGGNIYYNSAFKSRLSISRDTSKSQVLLKMSSLQTEDTAMYFCGRHRGYYWYNWGFFDYWGQGASVTVSS VL: NIQLTQSPSLLSASVGDRVTLSCKGSQNINNYLAWYQQKLGEAPKLLIYKTNSLQTGIPSRFSGSGSGTDFTLTISSLHSEDLATYYCCQYNNGYTFGAGTKLELK is 7 nM
